// reported Kd for each item listed
EXPERIMENTAL SYSTEM: T1, Dengue 2 virus capsid protein (Dengue virus 2), P29990
T1 chain: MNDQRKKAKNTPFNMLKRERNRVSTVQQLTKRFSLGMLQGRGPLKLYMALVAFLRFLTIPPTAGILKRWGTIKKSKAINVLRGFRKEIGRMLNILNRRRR
EXPERIMENT: SPR (BIACORE)
Phrase the answer as number then unit, nothing more needed.

| BINDER | Kd |
| --- | --- |
| NLNDRLASLYDKV (modifications not checked) [Peptide SEQ ID NO: 15] | 1.27 µM |

Proceed to the following item.
# binder NDRLASLYDKV (modifications not checked) [Peptide SEQ ID NO: 14] ; its Kd = 5.91 µM

Hello, the source for this data is patent US20250282828A1, in case you need it.
